B1: SETD8 (parent)
chain: FVVEYHGDLIEITDAKKREALYAQ

Variants of: B1
Experiment notes: protein stability index of a GFP-peptide fusion (GPS, HEK-293T) (PSI 1-6); higher = more stable;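 also: lentivirally expressed fusions sorted by FACS into six bins by GFP to DsRed ratio, PSI derived from sequencing read proportions per bin multiplied by bin number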
Setup conditions: c terminus: a fixed tail appended
Quantity name: protein stability index
Respond with the number and no other words.

Below: 3 variants and their reported protein stability index.
{"Mutation string": "K16Q", "protein stability index": 2.48}
{"Mutation string": "Y5N", "protein stability index": 2.73}
{"Mutation string": "L21E", "protein stability index": 2.88}

Attention now shifts to the item below.
Task item: What measured protein stability index goes with I12K ?
Reply: 2.75
